Dear all, this message contains pKi results, target or system Carbonic anhydrase 4 (Bos taurus, UniProt Q95323).
pKi: −log10 of the molar value.
readout: pKi

compoundSmiles	readout	recordedNumber
NS(=O)(=O)c1ccc(C(=O)NCC(=O)O)cc1	pKi	6.70
NS(=O)(=O)c1ccc(C(=O)NCCC(=O)O)cc1	pKi	6.72

----------
Sequence of the target: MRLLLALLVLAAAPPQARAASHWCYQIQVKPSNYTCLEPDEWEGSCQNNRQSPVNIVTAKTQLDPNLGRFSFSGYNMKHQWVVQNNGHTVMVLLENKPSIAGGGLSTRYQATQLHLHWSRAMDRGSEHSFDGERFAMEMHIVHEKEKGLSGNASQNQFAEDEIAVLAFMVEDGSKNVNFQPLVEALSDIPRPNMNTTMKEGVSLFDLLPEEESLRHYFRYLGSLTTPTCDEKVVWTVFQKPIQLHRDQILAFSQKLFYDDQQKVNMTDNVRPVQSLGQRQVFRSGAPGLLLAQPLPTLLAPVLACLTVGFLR
Field 'label' (enum: Satisfied / Not satisfied). Set to Satisfied when Ki is strictly under 0.2 µM; else Not satisfied.

compoundSmiles	class
NS(=O)(=O)c1ccc(C(=O)N[C@@H](Cc2c[nH]cn2)C(=O)NCC(=O)O)cc1	Satisfied
C[C@H](NC(=O)c1ccc(S(N)(=O)=O)cc1)C(=O)N[C@@H](Cc1ccccc1)C(=O)O	Satisfied
NS(=O)(=O)c1cc(C(=O)N[C@@H](CCC(=O)O)C(=O)O)ccc1Cl	Not satisfied
NS(=O)(=O)c1ccc(C(=O)N[C@@H](CCC(=O)O)C(=O)O)cc1	Satisfied
NS(=O)(=O)c1cc(C(=O)N[C@H](C(=O)O)c2ccccc2)ccc1Cl	Not satisfied

----------
Dear all, this message contains Ki results, target or system Carbonic anhydrase 4 (Bos taurus, UniProt Q95323).

compound	targetOrTestSystem	Ki (nM)
NS(=O)(=O)c1ccc(C(=O)Nc2nnc(S(N)(=O)=O)s2)cc1	Carbonic anhydrase 4 (Bos taurus, UniProt Q95323)	15
CCC(C)[C@H](NC(=O)c1ccc(S(N)(=O)=O)cc1)C(=O)O (single isomer, unassigned)	Carbonic anhydrase 4 (Bos taurus, UniProt Q95323)	86
NS(=O)(=O)c1ccc(C(=O)N[C@@H](CC(=O)O)C(=O)O)cc1	Carbonic anhydrase 4 (Bos taurus, UniProt Q95323)	150
NS(=O)(=O)c1ccc(C(=O)Nc2nnc(S)s2)cc1	Carbonic anhydrase 4 (Bos taurus, UniProt Q95323)	14
NS(=O)(=O)c1ccc(C(=O)NC(C(=O)O)c2ccccc2)cc1 (stereo not drawn)	Carbonic anhydrase 4 (Bos taurus, UniProt Q95323)	75
NS(=O)(=O)c1ccc(C(=O)NCCC(=O)N[C@@H](Cc2c[nH]cn2)C(=O)O)cc1	Carbonic anhydrase 4 (Bos taurus, UniProt Q95323)	21
NS(=O)(=O)c1ccc(C(=O)N[C@@H](Cc2cnc[nH]2)C(=O)O)cc1	Carbonic anhydrase 4 (Bos taurus, UniProt Q95323)	125
NS(=O)(=O)c1ccc(CNC(=O)c2ccc(Cl)c(S(N)(=O)=O)c2)cc1	Carbonic anhydrase 4 (Bos taurus, UniProt Q95323)	61

----------
Dear all, this message contains log10(Ki) results, target or system Carbonic anhydrase 1 (Homo sapiens).
readout: log10(Ki) (log10 of the value in nM)

compound	readout	recordedNumber
CC[C@H](C)[C@H](NC(=O)c1ccc(Cl)c(S(N)(=O)=O)c1)C(=O)O	log10(Ki)	2.18
NS(=O)(=O)c1cc(C(=O)N[C@@H](CCC(=O)O)C(=O)O)ccc1Cl	log10(Ki)	2.48
NS(=O)(=O)c1ccc(C(=O)NCCC(=O)O)cc1	log10(Ki)	2.64
NS(=O)(=O)c1cc(C(=O)N[C@@H](Cc2ccccc2)C(=O)O)ccc1Cl	log10(Ki)	2.13
NS(=O)(=O)c1ccc(C(=O)N[C@@H](CO)C(=O)O)cc1	log10(Ki)	2.64
C[C@H](NC(=O)c1ccc(S(N)(=O)=O)cc1)C(=O)N[C@@H](Cc1ccccc1)C(=O)O	log10(Ki)	2.51
NS(=O)(=O)c1ccc(CCNC(=O)c2ccc(Cl)c(S(N)(=O)=O)c2)cc1	log10(Ki)	1.32
CCC(C)[C@H](NC(=O)c1ccc(S(N)(=O)=O)cc1)C(=O)O (single isomer, unassigned)	log10(Ki)	2.54
NS(=O)(=O)c1ccc(C(=O)NC(Cc2ccc(O)c(O)c2)C(=O)O)cc1 (centres undefined)	log10(Ki)	2.72
NS(=O)(=O)c1ccc(C(=O)Nc2nnc(S(N)(=O)=O)s2)cc1	log10(Ki)	1.54
NS(=O)(=O)c1cc(C(=O)NCC(=O)O)ccc1Cl	log10(Ki)	2.32
C[C@H](NC(=O)c1ccc(Cl)c(S(N)(=O)=O)c1)C(=O)O	log10(Ki)	2.24
NC(=O)CC[C@H](NC(=O)c1ccc(S(N)(=O)=O)cc1)C(=O)O	log10(Ki)	2.63
NS(=O)(=O)c1ccc(C(=O)N[C@@H](CCC(=O)O)C(=O)O)cc1	log10(Ki)	2.63
NC(=O)C[C@H](NC(=O)c1ccc(Cl)c(S(N)(=O)=O)c1)C(=O)O	log10(Ki)	2.38
NS(=O)(=O)c1ccc(NC(=O)c2ccc(Cl)c(S(N)(=O)=O)c2)cc1	log10(Ki)	1.38
NS(=O)(=O)c1ccc(C(=O)NCCC(=O)N[C@@H](Cc2c[nH]cn2)C(=O)O)cc1	log10(Ki)	2.43
NS(=O)(=O)c1cc(C(=O)N[C@@H](Cc2c[nH]cn2)C(=O)O)ccc1Cl	log10(Ki)	2.01
NS(=O)(=O)c1cc(C(=O)N[C@@H](CC(=O)O)C(=O)O)ccc1Cl	log10(Ki)	2.45

----------
Dear all, this message contains Ki results, target or system UniProt:P00918.
readout: Ki (nM)

compoundSmiles	targetOrTestSystem	unitAbbrev	recordedNumber
NS(=O)(=O)c1ccc(C(=O)N[C@@H](Cc2cnc[nH]2)C(=O)O)cc1	UniProt:P00918	nM	40
NS(=O)(=O)c1cc(C(=O)N[C@@H](CS)C(=O)O)ccc1Cl	UniProt:P00918	nM	490
NS(=O)(=O)c1ccc(C(=O)N[C@@H](CS)C(=O)O)cc1	UniProt:P00918	nM	110
C[C@H](NC(=O)c1ccc(Cl)c(S(N)(=O)=O)c1)C(=O)O	UniProt:P00918	nM	420
